The measured values listed here are drawn from patent US8466155B2.

- Target system: PTK2 (Homo sapiens)
- Construct: purchased Invitrogen PV3832
- Assay: PTK2 enzyme test, Assay 1 (DELFIA, PT60 antibody)
- Assay type: biochemical
- Assay conditions: 1 h pre-incubation, 1 h kinase reaction, values without *
For each record, check the reported IC50: if it is below 6 nM write Criterion met, else write Criterion not met.

{"Compound structure": "COc1cc(C(=O)NCCN(C)C)c(F)cc1Nc1ncc(Cl)c(O[C@@H]2Cc3ccccc3[C@H]2N(C)S(C)(=O)=O)n1", "Category": "Criterion met"}
{"Compound structure": "COc1cc(C(=O)NC2CCN(C)CC2)c(F)cc1Nc1ncc(C(F)(F)F)c(O[C@@H]2Cc3ccccc3[C@H]2NS(C)(=O)=O)n1", "Category": "Criterion met"}
{"Compound structure": "COc1cc(C(=O)NCCCN(C)C)c(F)cc1Nc1ncc(Cl)c(O[C@@H]2Cc3ccccc3[C@H]2N(C)S(C)(=O)=O)n1", "Category": "Criterion met"}
{"Compound structure": "COc1cc(C(=O)NN2CCN(C)CC2)c(F)cc1Nc1ncc(C(F)(F)F)c(O[C@@H]2CCC[C@H]2N(C)S(C)(=O)=O)n1", "Category": "Criterion met"}
{"Compound structure": "COc1cc(C(=O)NC2CCN(C)CC2)c(F)cc1Nc1ncc(C(F)(F)F)c(O[C@@H]2CCC[C@H]2NS(=O)(=O)C(F)(F)F)n1", "Category": "Criterion not met"}

---

Entries and their IC50
- Target system: PTK2 (Homo sapiens)
- Construct: purchased Invitrogen PV3832
- Assay: PTK2 enzyme test, Assay 2 (DELFIA, PT66 antibody)
- Type: biochemical
- Assay conditions: values marked (*), read-out: PTK2 1 h IC50
Property: IC50

{"Compound structure": "COc1ccc(C(=O)NC2CCN(C)CC2)cc1Nc1ncc(C(F)(F)F)c(O[C@@H]2Cc3ccccc3[C@H]2N(C)S(C)(=O)=O)n1", "Property": "IC50", "Assay value": "0.4 nM"}
{"Compound structure": "COc1cc(N2CCN(C(C)(C)C)CC2)ccc1Nc1ncc(C(F)(F)F)c(O[C@@H]2Cc3ccccc3[C@H]2N(C)S(C)(=O)=O)n1", "Property": "IC50", "Assay value": "0.85 nM"}

---

- Target system: PTK2 (Homo sapiens, UniProt Q05397)
- Construct: purchased Invitrogen PV3832
- Sequence (Q05397 whole entry): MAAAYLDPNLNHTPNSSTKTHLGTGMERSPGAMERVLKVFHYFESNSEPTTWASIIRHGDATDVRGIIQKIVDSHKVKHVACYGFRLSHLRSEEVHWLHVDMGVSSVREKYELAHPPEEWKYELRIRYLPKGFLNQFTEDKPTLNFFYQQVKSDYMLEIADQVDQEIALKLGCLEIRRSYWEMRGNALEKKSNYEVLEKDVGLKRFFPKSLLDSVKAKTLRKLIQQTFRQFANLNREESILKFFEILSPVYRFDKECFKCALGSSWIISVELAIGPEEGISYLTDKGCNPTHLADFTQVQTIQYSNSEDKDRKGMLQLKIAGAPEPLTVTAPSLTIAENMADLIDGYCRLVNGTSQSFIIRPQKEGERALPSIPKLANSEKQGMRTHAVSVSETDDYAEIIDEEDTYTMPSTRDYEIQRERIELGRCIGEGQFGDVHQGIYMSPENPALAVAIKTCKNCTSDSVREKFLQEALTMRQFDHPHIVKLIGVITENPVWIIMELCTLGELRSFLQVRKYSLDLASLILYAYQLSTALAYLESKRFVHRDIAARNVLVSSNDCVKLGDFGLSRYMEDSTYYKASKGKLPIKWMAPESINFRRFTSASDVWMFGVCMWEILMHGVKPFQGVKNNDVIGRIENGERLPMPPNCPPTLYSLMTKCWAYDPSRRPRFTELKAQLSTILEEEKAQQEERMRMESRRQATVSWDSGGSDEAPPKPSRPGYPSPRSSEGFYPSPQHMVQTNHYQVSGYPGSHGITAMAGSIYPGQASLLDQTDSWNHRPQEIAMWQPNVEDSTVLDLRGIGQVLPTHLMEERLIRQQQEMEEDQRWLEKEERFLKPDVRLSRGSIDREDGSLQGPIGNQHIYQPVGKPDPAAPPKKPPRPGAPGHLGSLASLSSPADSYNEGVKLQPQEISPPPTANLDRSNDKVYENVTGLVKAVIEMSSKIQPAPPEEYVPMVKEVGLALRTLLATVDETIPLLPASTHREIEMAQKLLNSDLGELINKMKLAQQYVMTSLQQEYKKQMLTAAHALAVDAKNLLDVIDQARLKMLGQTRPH
- Assay: PTK2 enzyme test, Assay 1 (DELFIA, PT60 antibody)
- Type: biochemical
- Assay conditions: 1 h pre-incubation, 1 h kinase reaction, values without *

{"Compound": "COc1cc(C(=O)NCCN(C)C)c(F)cc1Nc1ncc(C(F)(F)F)c(O[C@@H]2Cc3ccccc3[C@H]2N(C)S(C)(=O)=O)n1 [Example 2]", "Result unit": "nM", "IC50": 5}
{"Compound": "COc1cc(C(=O)NCC2CC2)ccc1Nc1ncc(C(F)(F)F)c(O[C@@H]2Cc3ccccc3[C@H]2N(C)S(C)(=O)=O)n1 [Example 21]", "Result unit": "nM", "IC50": 12}
{"Compound": "COc1cc(C(=O)NC2CCN(C)CC2)c(F)cc1Nc1ncc(C(F)(F)F)c(O[C@@H]2CCCC[C@H]2NS(C)(=O)=O)n1 [Example 105]", "Result unit": "nM", "IC50": 0.39}
{"Compound": "COc1cc(C(=O)NCCN(C)C)c(F)cc1Nc1ncc(C(F)(F)F)c(O[C@@H]2Cc3ccccc3[C@H]2NS(C)(=O)=O)n1 [Example 96]", "Result unit": "nM", "IC50": 0.54}
{"Compound": "COc1cc(C(=O)NC[C@H](O)CO)c(Cl)cc1Nc1ncc(Cl)c(O[C@@H]2Cc3ccccc3[C@H]2N(C)S(C)(=O)=O)n1 [Example 36]", "Result unit": "nM", "IC50": 3}
{"Compound": "COc1cc(C(=O)NCCN(C)C)c(Cl)cc1Nc1ncc(C(F)(F)F)c(O[C@@H]2CCCC[C@H]2N(C)S(C)(=O)=O)n1 [Example 109]", "Result unit": "nM", "IC50": 0.35}

---

- Target system: PTK2 (Homo sapiens, UniProt Q05397)
- Construct: purchased Invitrogen PV3832
- Assay: PTK2 enzyme test, Assay 1 (DELFIA, PT60 antibody)
- Type: biochemical
- Assay conditions: 1 h pre-incubation, 1 h kinase reaction, values without *
Response field label takes Condition met when IC50 is strictly below 4 nM and Condition not met in all other cases.

{"Compound structure": "COc1cc(C(=O)NC2CCN(C)CC2)c(F)cc1Nc1ncc(C(F)(F)F)c(O[C@@H]2CCC[C@H]2N(C)S(C)(=O)=O)n1", "Target system": "PTK2 (Homo sapiens, UniProt Q05397)", "Category": "Condition met"}
{"Compound structure": "COc1cc(C(=O)NCCN(C)C)c(Cl)cc1Nc1ncc(C(F)(F)F)c(O[C@@H]2CCCC[C@H]2NS(C)(=O)=O)n1", "Target system": "PTK2 (Homo sapiens, UniProt Q05397)", "Category": "Condition met"}
{"Compound structure": "COc1cc(C(=O)N[C@H]2CC[C@H](O)CC2)c(F)cc1Nc1ncc(Cl)c(O[C@@H]2Cc3ccccc3[C@H]2N(C)S(C)(=O)=O)n1", "Target system": "PTK2 (Homo sapiens, UniProt Q05397)", "Category": "Condition not met"}
{"Compound structure": "COc1cc(C(=O)N(C)C)c(F)cc1Nc1ncc(Cl)c(O[C@@H]2Cc3ccccc3[C@H]2N(C)S(C)(=O)=O)n1", "Target system": "PTK2 (Homo sapiens, UniProt Q05397)", "Category": "Condition not met"}
{"Compound structure": "COc1cc(C(=O)NCCCN(C)C)c(Cl)cc1Nc1ncc(Cl)c(O[C@@H]2Cc3ccccc3[C@H]2N(C)S(C)(=O)=O)n1", "Target system": "PTK2 (Homo sapiens, UniProt Q05397)", "Category": "Condition met"}
{"Compound structure": "COc1cc(C(=O)NC2CCN(C)CC2)ccc1Nc1ncc(C(F)(F)F)c(O[C@@H]2Cc3ccccc3[C@@H]2N(C)S(C)(=O)=O)n1", "Target system": "PTK2 (Homo sapiens, UniProt Q05397)", "Category": "Condition not met"}
{"Compound structure": "COc1cc(C(=O)NC2CCN(C)CC2)c(Cl)cc1Nc1ncc(C(F)(F)F)c(O[C@@H]2CCCC[C@H]2NS(C)(=O)=O)n1", "Target system": "PTK2 (Homo sapiens, UniProt Q05397)", "Category": "Condition met"}
{"Compound structure": "COc1cc(C(=O)NC2CCN(C)CC2)ccc1Nc1ncc(C(F)(F)F)c(O[C@H]2Cc3ccccc3[C@H]2N(C)S(C)(=O)=O)n1", "Target system": "PTK2 (Homo sapiens, UniProt Q05397)", "Category": "Condition not met"}
{"Compound structure": "COc1cc(C(=O)NC2CCN(C)CC2)c(F)cc1Nc1ncc(C(F)(F)F)c(O[C@@H]2CCCC[C@H]2N(C)S(C)(=O)=O)n1", "Target system": "PTK2 (Homo sapiens, UniProt Q05397)", "Category": "Condition met"}
{"Compound structure": "COc1cc(C(=O)NCCN(C)C)ccc1Nc1ncc(C(F)(F)F)c(O[C@@H]2CCCC[C@H]2N(C)S(C)(=O)=O)n1", "Target system": "PTK2 (Homo sapiens, UniProt Q05397)", "Category": "Condition met"}
{"Compound structure": "COc1cc(C(=O)NC[C@@H](O)CO)c(F)cc1Nc1ncc(C(F)(F)F)c(O[C@@H]2Cc3ccccc3[C@H]2N(C)S(C)(=O)=O)n1", "Target system": "PTK2 (Homo sapiens, UniProt Q05397)", "Category": "Condition not met"}
{"Compound structure": "CNC(=O)c1cc(OC)c(Nc2ncc(C(F)(F)F)c(O[C@@H]3Cc4ccccc4[C@H]3N(C)S(C)(=O)=O)n2)cc1F", "Target system": "PTK2 (Homo sapiens, UniProt Q05397)", "Category": "Condition not met"}
{"Compound structure": "CNC(=O)c1cc(OC)c(Nc2ncc(Cl)c(O[C@@H]3Cc4ccccc4[C@H]3N(C)S(C)(=O)=O)n2)cc1F", "Target system": "PTK2 (Homo sapiens, UniProt Q05397)", "Category": "Condition not met"}
{"Compound structure": "COc1cc(C(=O)NC2CCN(C)CC2)ccc1Nc1ncc(C(F)(F)F)c(O[C@H]2Cc3ccccc3[C@@H]2N(C)S(C)(=O)=O)n1", "Target system": "PTK2 (Homo sapiens, UniProt Q05397)", "Category": "Condition not met"}
{"Compound structure": "COc1cc(C(=O)NC2CCN(C)CC2)c(Cl)cc1Nc1ncc(C(F)(F)F)c(O[C@@H]2CCC[C@H]2N(C)S(C)(=O)=O)n1", "Target system": "PTK2 (Homo sapiens, UniProt Q05397)", "Category": "Condition met"}
{"Compound structure": "COc1cc(C(=O)NCCn2ccnc2C)c(F)cc1Nc1ncc(Cl)c(O[C@@H]2Cc3ccccc3[C@H]2N(C)S(C)(=O)=O)n1", "Target system": "PTK2 (Homo sapiens, UniProt Q05397)", "Category": "Condition not met"}
{"Compound structure": "COc1cc(C(=O)NCCN2CCN(C)CC2)c(F)cc1Nc1ncc(Cl)c(O[C@@H]2Cc3ccccc3[C@H]2N(C)S(C)(=O)=O)n1", "Target system": "PTK2 (Homo sapiens, UniProt Q05397)", "Category": "Condition met"}
{"Compound structure": "COc1cc(C(=O)NCC2CC2)c(F)cc1Nc1ncc(Cl)c(O[C@@H]2Cc3ccccc3[C@H]2N(C)S(C)(=O)=O)n1", "Target system": "PTK2 (Homo sapiens, UniProt Q05397)", "Category": "Condition not met"}
{"Compound structure": "COc1cc(C(=O)NN2CCN(C)CC2)ccc1Nc1ncc(C(F)(F)F)c(O[C@@H]2CCCC[C@H]2N(C)S(C)(=O)=O)n1", "Target system": "PTK2 (Homo sapiens, UniProt Q05397)", "Category": "Condition met"}
{"Compound structure": "COc1cc(C(=O)NCC(C)(C)C)ccc1Nc1ncc(C(F)(F)F)c(O[C@@H]2Cc3ccccc3[C@H]2N(C)S(C)(=O)=O)n1", "Target system": "PTK2 (Homo sapiens, UniProt Q05397)", "Category": "Condition not met"}
{"Compound structure": "CONC(=O)c1cc(OC)c(Nc2ncc(C(F)(F)F)c(O[C@@H]3Cc4ccccc4[C@H]3N(C)S(C)(=O)=O)n2)cc1F", "Target system": "PTK2 (Homo sapiens, UniProt Q05397)", "Category": "Condition not met"}
